experimental system: Cbl (aa49-434) (Homo sapiens)
Construct: Cbl (aa49-434, in-house); made in house
Sequence (P22681 49-434): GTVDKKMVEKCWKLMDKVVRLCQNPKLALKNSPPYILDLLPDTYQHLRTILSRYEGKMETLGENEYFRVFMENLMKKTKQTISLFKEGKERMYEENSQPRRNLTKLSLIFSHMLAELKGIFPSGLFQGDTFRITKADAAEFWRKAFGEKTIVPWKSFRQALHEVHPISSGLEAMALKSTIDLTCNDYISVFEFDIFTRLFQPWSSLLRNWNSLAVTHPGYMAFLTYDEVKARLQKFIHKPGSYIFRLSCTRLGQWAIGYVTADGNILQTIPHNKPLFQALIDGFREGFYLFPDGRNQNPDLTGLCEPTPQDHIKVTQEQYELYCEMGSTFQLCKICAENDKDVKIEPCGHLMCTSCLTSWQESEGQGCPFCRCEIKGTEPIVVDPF
experiment notes: Co-expressed Cbl with BirA biochemical assay (CBL/E2-Ub binding, HTRF)
condition label: 0.6 nM Cbl co-expressed with BirA, read-out: co-express CBL/E2-Ub-binding assay IC50
Class (by IC50) -- low (below 3 nM), moderate (3 nM to below 20 nM), high (20 nM or more)

smiles str: C[C@H]1CCCN(Cc2cc(C(=O)Nc3cccc([C@]4(c5nncn5C)C[C@@H](CC#N)C4)c3)nn3cccc23)C1
category: high
//
smiles str: C[C@H]1CCCN(Cc2cc(C(=O)Nc3cccc([C@]4(Cc5nncn5C)C[C@@H](C#N)C4)c3)nc3c2NCC3(C)C)C1
category: low
//
smiles str: C[C@H]1CCCN(Cc2cc(C(=O)Nc3cccc([C@]4(Cc5nncn5C)C[C@@H](C#N)C4)c3)nc3cc[nH]c23)C1
category: moderate
//
smiles str: Cn1cnnc1[C@]1(c2cccc(NC(=O)c3cc(CNCC4(C)CCC4)c4c(n3)C(C)(C)CO4)c2)C[C@H](CC#N)C1
category: high
//
smiles str: C[C@H](NCc1cc(C(=O)Nc2cccc([C@]3(c4nncn4C)C[C@@H](CC#N)C3)c2)nc2c1OCC2(C)C)C1CC1
category: high
//
smiles str: Cn1cnnc1[C@]1(c2cccc(NC(=O)c3cc(CNC4(C)CCC4)c4c(n3)C(C)(C)CO4)c2)C[C@H](CC#N)C1
category: high
//
smiles str: CC(C)CNCc1cc(C(=O)Nc2cncc([C@]3(c4nncn4C)C[C@@H](C)C3)c2)nc2c(F)c[nH]c12
category: moderate
//
smiles str: Cn1cnnc1[C@]1(c2cccc(NC(=O)c3cc(CNC4(C)CC4)cc4ccnn34)c2)C[C@H](C)C1
category: moderate
//
smiles str: Cn1cnnc1[C@]1(c2cccc(NC(=O)c3cc(CNC4(C)CCC4)cn4ccnc34)c2)C[C@H](CC#N)C1
category: moderate
//
smiles str: CC(C)CNCc1cc(C(=O)Nc2cncc([C@]3(c4nncn4C)C[C@@H](C)C3)c2)c2ncc(Cl)n2c1
category: low
//
smiles str: C[C@H](NCc1cc(C(=O)Nc2cccc([C@]3(c4nncn4C)C[C@@H](CC#N)C3)c2)nc2cc[nH]c12)C1CCCC1
category: low
//
smiles str: Cc1c[nH]c2c(CNC3(C)CC3)cc(C(=O)Nc3cccc([C@]4(c5nncn5C)C[C@@H](CC#N)C4)c3)nc12
category: moderate
//
smiles str: C[C@H](NCc1cc(C(=O)Nc2cccc([C@]3(c4nncn4C)C[C@@H](C)C3)c2)nc2cc[nH]c12)C1CCC1
category: low
//
smiles str: Cn1cnnc1C[C@]1(c2cccc(NC(=O)c3cc(CNC4CCCCC4)c4c(n3)C(C)(C)CO4)c2)C[C@H](C#N)C1
category: moderate
//
smiles str: Cn1cnnc1[C@]1(c2cccc(NC(=O)c3cc(CNCC4CCC4)c4[nH]cc(F)c4n3)c2)C[C@H](C)C1
category: low
//
smiles str: Cn1cnnc1[C@]1(c2cccc(NC(=O)c3cc(CNC4(C)CC4)cc4c(F)cnn34)c2)C[C@H](CC#N)C1
category: moderate
//
smiles str: C[C@H]1CCCN(Cc2cc(C(=O)Nc3cccc([C@]4(c5nncn5C)C[C@@H](CC#N)C4)c3)n3ncnc3c2)C1
category: high
//
smiles str: Cn1cnnc1[C@]1(c2cccc(NC(=O)c3cc(CNCC4CCC4)c4[nH]ccc4n3)c2)C[C@H](C)C1
category: low
//
smiles str: CC(C)CNCc1cc(C(=O)Nc2cccc([C@]3(c4nncn4C)C[C@@H](CC#N)C3)c2)nc2c1NCC2(C)C
category: moderate
//
smiles str: Cn1cnnc1[C@]1(c2cncc(NC(=O)c3cc(CNCC4CCC4)c4[nH]cc(Cl)c4n3)c2)C[C@H](C)C1
category: moderate
//
smiles str: Cn1cnnc1[C@]1(c2cncc(NC(=O)c3cc(CNCC4CCC4)c4c(n3)C(C)(C)CC4)c2)C[C@H](C)C1
category: moderate
//
smiles str: Cn1cnnc1[C@]1(c2cncc(NC(=O)c3cc(CNC4(C)CC4)cc4c(F)cnn34)c2)C[C@H](C)C1
category: moderate
//
smiles str: C[C@H](NCc1cc(C(=O)Nc2cccc([C@]3(c4nncn4C)C[C@@H](CC#N)C3)c2)nc2c1CCC2(C)C)C1CC1
category: low
//
smiles str: Cn1cnnc1[C@]1(c2cncc(NC(=O)c3cc(CNC4(C)CCC4)c4[nH]cc(Cl)c4n3)c2)C[C@H](C)C1
category: moderate
//
smiles str: C[C@H](NCc1cc(C(=O)Nc2cccc([C@]3(c4nncn4C)C[C@@H](CC#N)C3)c2)c2nccn2c1)C1CCC1
category: low
//
smiles str: Cc1cnc2c(C(=O)Nc3cncc([C@]4(c5nncn5C)C[C@@H](C)C4)c3)cc(CN[C@@H](C)C3CC3)cn12
category: high

###

# maps each entry to its pIC50
experimental system: Cbl-b (aa36-427) (Homo sapiens, UniProt Q13191)
Construct: Cbl-b (aa36-427, in-house); made in house
Sequence (Q13191 36-427): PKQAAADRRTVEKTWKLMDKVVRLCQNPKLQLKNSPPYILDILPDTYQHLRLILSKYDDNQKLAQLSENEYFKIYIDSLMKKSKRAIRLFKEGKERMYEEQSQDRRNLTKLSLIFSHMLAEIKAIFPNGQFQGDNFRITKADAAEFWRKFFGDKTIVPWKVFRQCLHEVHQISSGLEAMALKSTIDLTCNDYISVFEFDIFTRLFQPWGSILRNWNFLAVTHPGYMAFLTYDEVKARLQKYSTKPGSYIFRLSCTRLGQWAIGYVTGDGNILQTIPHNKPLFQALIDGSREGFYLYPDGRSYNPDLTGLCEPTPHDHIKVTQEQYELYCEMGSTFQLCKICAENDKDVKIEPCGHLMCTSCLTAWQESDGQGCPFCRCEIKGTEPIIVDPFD
experiment notes: Co-expressed Cbl-b with BirA biochemical assay (CBLB/E2-Ub binding, HTRF)
condition label: 0.6 nM Cbl-b co-expressed with BirA, HTRF; read-out: co-express CBLB/E2-Ub-binding assay IC50
pIC50: −log10 of the molar value.
parameter measured: pIC50

molecule: C[C@H](NCc1cc(C(=O)Nc2cccc([C@]3(c4nncn4C)C[C@@H](C)C3)c2)c2ncc(Cl)n2c1)C1CC1 [Compound A58]
test value: 9.15

molecule: Cn1cnnc1[C@]1(c2cccc(NC(=O)c3cc(CNCC4CCC4)cn4ccnc34)c2)C[C@H](C)C1 [Compound A22]
test value: 8.96

molecule: C[C@H](NCc1cc(C(=O)Nc2cccc([C@]3(c4nncn4C)C[C@@H](C)C3)c2)c2ncc(F)n2c1)C1CC1 [Compound A19]
test value: 8.77

molecule: C[C@H]1CCCN(Cc2cc(C(=O)Nc3cccc([C@]4(c5nncn5C)C[C@@H](C)C4)c3)nc3cc[nH]c23)C1 [Compound B4]
test value: 8.52

molecule: C[C@H](NCc1cc(C(=O)Nc2cccc([C@]3(c4nncn4C)C[C@@H](C)C3)c2)c2nccn2c1)C1CCCC1 [Compound A40]
test value: 8.80

molecule: Cn1cnnc1[C@]1(c2cccc(NC(=O)c3cc(CNCC4(C)CCCC4)c4c(n3)C(C)(C)CN4)c2)C[C@H](CC#N)C1 [Compound C22]
test value: 8.85

molecule: Cn1cnnc1[C@]1(c2cncc(NC(=O)c3cc(CNCC4CCC4)c4[nH]ccc4n3)c2)C[C@H](C)C1 [Compound B40]
test value: 9.00

###

experimental system: Cbl-b (aa36-427) (Homo sapiens, UniProt Q13191)
Construct: Cbl-b (aa36-427, in-house); made in house
experiment notes: Co-expressed Cbl-b with BirA biochemical assay (CBLB/E2-Ub binding, HTRF)
condition label: 0.6 nM Cbl-b co-expressed with BirA, HTRF; read-out: co-express CBLB/E2-Ub-binding assay IC50
pIC50: −log10 of the molar value.
# maps each entry to its pIC50

smiles str: Cn1cnnc1[C@]1(c2cccc(NC(=O)c3cc(CNCC4CCC4)cn4ccnc34)c2)C[C@H](CC#N)C1
experimental system: Cbl-b (aa36-427) (Homo sapiens, UniProt Q13191)
pIC50: 8.70
//
smiles str: C[C@H](NCc1cc(C(=O)Nc2cccc([C@]3(c4nncn4C)C[C@@H](C)C3)c2)nc2c1NCC2(C)C)C1CCC1
experimental system: Cbl-b (aa36-427) (Homo sapiens, UniProt Q13191)
pIC50: 9.15
//
smiles str: Cn1cnnc1[C@]1(c2cncc(NC(=O)c3cc(CNC4(C)CC4)c4ccsc4n3)c2)C[C@H](C)C1
experimental system: Cbl-b (aa36-427) (Homo sapiens, UniProt Q13191)
pIC50: 8.85
//
smiles str: C[C@H](NCc1cc(C(=O)Nc2cncc([C@]3(c4nncn4C)C[C@@H](C)C3)c2)nc2sccc12)C1CCC1
experimental system: Cbl-b (aa36-427) (Homo sapiens, UniProt Q13191)
pIC50: 8.68
//
smiles str: Cn1cnnc1[C@]1(c2cncc(NC(=O)c3cc(CNC4(C)CC4)cn4c(Cl)cnc34)c2)C[C@H](C)C1
experimental system: Cbl-b (aa36-427) (Homo sapiens, UniProt Q13191)
pIC50: 8.92
//
smiles str: Cn1cnnc1[C@]1(c2cncc(NC(=O)c3cc(CNC4(C)CCC4)cn4ccnc34)c2)C[C@H](C)C1
experimental system: Cbl-b (aa36-427) (Homo sapiens, UniProt Q13191)
pIC50: 8.74
//
smiles str: Cn1cnnc1[C@]1(c2cccc(NC(=O)c3cc(CNC4(C)CC4)cc4c(F)cnn34)c2)C[C@H](C)C1
experimental system: Cbl-b (aa36-427) (Homo sapiens, UniProt Q13191)
pIC50: 9.40

Taken from patent US20250163047A1.
